Measurement Protocol: acute toxicity (LD50 table, level of toxicity)
Test Conditions: in vivo; route of administration: par(enteral)
Readout Label: LD50 at 24 h

>  <Query Smiles>
O=C(O)CON=Cc1ccc(Cl)cc1

>  <Reported Value>
> 320 mg/kg

$$$$
>  <Query Smiles>
CC(=NOCCC(=O)O)c1ccc(Cl)cc1

>  <Reported Value>
> 100 mg/kg

$$$$
>  <Query Smiles>
CC(=NOCC(=O)O)c1ccc(Cl)cc1Cl

>  <Reported Value>
> 320 mg/kg

$$$$

Attention now turns to another entry.
Consider the compound shown here: CC(=NOCC(=O)O)c1ccc(Cl)c(Cl)c1 What is its recorded LD50 at 24 h? > 320 mg/kg

---

This listing pairs compounds with measured LD50 at 24 h.
Measurement Protocol: acute toxicity (LD50 table, level of toxicity)
Test Conditions: in vivo; route of administration: par(enteral)

>  <Compound>
CC(=NOCC(=O)O)c1ccc(C)cc1 [CH3 H H CH3 CH2 OH]

>  <Readout Label>
LD50 at 24 h

>  <Reported Value>
> 320 mg/kg

$$$$
>  <Compound>
CC(=NOCC(=O)O)c1ccc(Br)cc1 [Br H H CH3 CH2 OH]

>  <Readout Label>
LD50 at 24 h

>  <Reported Value>
> 100 mg/kg

$$$$
>  <Compound>
CC(=NOCCCC(=O)O)c1ccc(Cl)cc1 [C1 H H CH3 (CH2)3 OH]

>  <Readout Label>
LD50 at 24 h

>  <Reported Value>
> 320 mg/kg

$$$$
>  <Compound>
CC(=NOCC(=O)O)c1ccc(S(C)(=O)=O)cc1 [CH3 SO2 H H CH3 CH2 OH]

>  <Readout Label>
LD50 at 24 h

>  <Reported Value>
> 320 mg/kg

$$$$

Consider the compound shown here: CC(=NOCC(=O)O)c1cccc(Cl)c1 [H C1 H CH3 CH2 OH] What is its recorded LD50 at 24 h? > 320 mg/kg
